The reader will find reported MIC values listed item by item below.
- System: Salmonella enteritidis
- measurement description: Antimicrobial activity against Salmonella enterica subsp. enterica serovar Enteritidis after 18 to 20 hr by agar dilution method
- Assay type: functional

compound	MIC (µg/mL)
CCCCN(CCCC)CN1C(=O)/C(=N\c2ncc(Cc3cc(OC)c(OC)c(OC)c3)c(N)n2)c2cc(Cl)ccc21	625
COc1cc(Cc2cnc(/N=C3\C(=O)N(CN4CCC(C)CC4)c4ccc(Cl)cc43)nc2N)cc(OC)c1OC	1250
COc1cc(Cc2cnc(/N=C3\C(=O)N(CN4CCN(c5cccc(Cl)c5)CC4)c4ccc(Cl)cc43)nc2N)cc(OC)c1OC	1250
COc1cc(Cc2cnc(/N=C3\C(=O)N(CN(Cc4ccccc4)Cc4ccccc4)c4ccc(Cl)cc43)nc2N)cc(OC)c1OC	625
O=C(O)c1cn(C2CC2)c2cc(N3CCNCC3)c(F)cc2c1=O [CIPROFLOXACIN]	0.04
COc1cc(Cc2cnc(/N=C3\C(=O)N(CN4CCN(c5c(F)cc6c(=O)c(C(=O)O)cn(C7CC7)c6c5F)CC4C)c4ccc(Cl)cc43)nc2N)cc(OC)c1OC (stereo not given)	0.019
COc1cc(Cc2cnc(/N=C3\C(=O)N(CN4CCN(c5ccccn5)CC4)c4ccc(Cl)cc43)nc2N)cc(OC)c1OC	1250
CCN(CC)CN1C(=O)/C(=N\c2ncc(Cc3cc(OC)c(OC)c(OC)c3)c(N)n2)c2cc(Cl)ccc21	625
COc1cc(Cc2cnc(/N=C3\C(=O)N(CN4CCN(C)CC4)c4ccc(Cl)cc43)nc2N)cc(OC)c1OC	1250
COc1cc(Cc2cnc(/N=C3\C(=O)N(CN4CCN(c5ccc(Cl)cc5)CC4)c4ccc(Cl)cc43)nc2N)cc(OC)c1OC	1250
COc1c(N2CCNC(C)C2)c(F)cc2c(=O)c(C(=O)O)cn(C3CC3)c12 (stereo not given) [GATIFLOXACIN]	0.02
COc1cc(Cc2cnc(/N=C3\C(=O)N(CN4CCN(c5cc6c(cc5F)c(=O)c(C(=O)O)cn6C5CC5)CC4)c4ccc(Cl)cc43)nc2N)cc(OC)c1OC	0.61
COc1cc(Cc2cnc(/N=C3\C(=O)N(CN4CCN(C(=O)c5ccc(F)cc5)CC4)c4ccc(Cl)cc43)nc2N)cc(OC)c1OC	2500
COc1cccc(N2CCN(CN3C(=O)/C(=N\c4ncc(Cc5cc(OC)c(OC)c(OC)c5)c(N)n4)c4cc(Cl)ccc43)CC2)c1	1250
COc1cc(Cc2cnc(/N=C3\C(=O)N(CN4CCN(Cc5ccccc5)CC4)c4ccc(Cl)cc43)nc2N)cc(OC)c1OC	625

###

- System: Enterobacter
- measurement description: Antimicrobial activity against Enterobacter after 18 to 20 hr by agar dilution method
- Format: functional

compound	target or test system	units	MIC
COc1cc(Cc2cnc(/N=C3\C(=O)N(CN4CCN(c5cccc(Cl)c5)CC4)c4ccc(Cl)cc43)nc2N)cc(OC)c1OC	Enterobacter	µg/mL	625
COc1cc(Cc2cnc(/N=C3\C(=O)N(CN4CCN(c5c(F)cc6c(=O)c(C(=O)O)cn(C7CC7)c6c5F)CC4C)c4ccc(Cl)cc43)nc2N)cc(OC)c1OC (stereo not given)	Enterobacter	µg/mL	0.019
CCn1cc(C(=O)O)c(=O)c2cc(F)c(N3CCN(CN4C(=O)/C(=N\c5ncc(Cc6cc(OC)c(OC)c(OC)c6)c(N)n5)c5cc(Cl)ccc54)C(C)C3)c(F)c21 (stereo not given)	Enterobacter	µg/mL	0.0095
CCCCN(CCCC)CN1C(=O)/C(=N\c2ncc(Cc3cc(OC)c(OC)c(OC)c3)c(N)n2)c2cc(Cl)ccc21	Enterobacter	µg/mL	1250
COc1cc(Cc2cnc(/N=C3\C(=O)N(CN4CCN(c5cc6c(cc5F)c(=O)c(C(=O)O)cn6C5CC5)CC4)c4ccc(Cl)cc43)nc2N)cc(OC)c1OC	Enterobacter	µg/mL	0.0381
COc1cc(Cc2cnc(/N=C3\C(=O)N(CN4CCN(C)CC4)c4ccc(Cl)cc43)nc2N)cc(OC)c1OC	Enterobacter	µg/mL	312
O=C(O)c1cn(C2CC2)c2cc(N3CCNCC3)c(F)cc2c1=O	Enterobacter	µg/mL	0.04
COc1c(N2CCNC(C)C2)c(F)cc2c(=O)c(C(=O)O)cn(C3CC3)c12 (stereo not given)	Enterobacter	µg/mL	0.02
CCN(CC)CN1C(=O)/C(=N\c2ncc(Cc3cc(OC)c(OC)c(OC)c3)c(N)n2)c2cc(Cl)ccc21	Enterobacter	µg/mL	312
COc1cc(Cc2cnc(/N=C3\C(=O)N(CN(Cc4ccccc4)Cc4ccccc4)c4ccc(Cl)cc43)nc2N)cc(OC)c1OC	Enterobacter	µg/mL	625
COc1cc(Cc2cnc(/N=C3\C(=O)N(CN4CCN(C(=O)c5ccc(F)cc5)CC4)c4ccc(Cl)cc43)nc2N)cc(OC)c1OC	Enterobacter	µg/mL	625
COc1cc(Cc2cnc(/N=C3\C(=O)N(CN4CCN(c5ccc(Cl)cc5)CC4)c4ccc(Cl)cc43)nc2N)cc(OC)c1OC	Enterobacter	µg/mL	1250
CCn1cc(C(=O)O)c(=O)c2cc(F)c(N3CCNC(C)C3)c(F)c21 (stereo not given)	Enterobacter	µg/mL	19.5
COc1cc(Cc2cnc(/N=C3\C(=O)N(CN4CCCCC4C)c4ccc(Cl)cc43)nc2N)cc(OC)c1OC (stereo not given)	Enterobacter	µg/mL	625
COc1cc(Cc2cnc(/N=C3\C(=O)N(CN4CCN(c5ccccn5)CC4)c4ccc(Cl)cc43)nc2N)cc(OC)c1OC	Enterobacter	µg/mL	1250

###

- Test system: Morganella morganii
- measurement description: Antimicrobial activity against Morganella morganii after 18 to 20 hr by agar dilution method
- Type: functional
measurement type: log10 of MIC (log10 of the value in µg/mL)

compound	reading
COc1cc(Cc2cnc(/N=C3\C(=O)N(CN(Cc4ccccc4)Cc4ccccc4)c4ccc(Cl)cc43)nc2N)cc(OC)c1OC	2.80
COc1cc(Cc2cnc(/N=C3\C(=O)N(CN4CCN(c5ccc(Cl)cc5)CC4)c4ccc(Cl)cc43)nc2N)cc(OC)c1OC	3.10
CCn1cc(C(=O)O)c(=O)c2cc(F)c(N3CCN(CN4C(=O)/C(=N\c5ncc(Cc6cc(OC)c(OC)c(OC)c6)c(N)n5)c5cc(Cl)ccc54)C(C)C3)c(F)c21 (configuration not stated)	-0.82
COc1c(N2CCNC(C)C2)c(F)cc2c(=O)c(C(=O)O)cn(C3CC3)c12 (configuration not stated) [GATIFLOXACIN]	-1.70
COc1cc(Cc2cnc(/N=C3\C(=O)N(CN4CCN(c5c(F)cc6c(=O)c(C(=O)O)cn(C7CC7)c6c5F)CC4C)c4ccc(Cl)cc43)nc2N)cc(OC)c1OC (configuration not stated)	-1.42
COc1cc(Cc2cnc(/N=C3\C(=O)N(CN4CCN(c5ccc(F)cc5)CC4)c4ccc(Cl)cc43)nc2N)cc(OC)c1OC	2.80
CCN(CC)CN1C(=O)/C(=N\c2ncc(Cc3cc(OC)c(OC)c(OC)c3)c(N)n2)c2cc(Cl)ccc21	2.80

###

- target or test system: Human immunodeficiency virus type 1 reverse transcriptase (Human immunodeficiency virus 1, UniProt Q72547)
measurement type: IC50 (µM)

> print(dat)
                           structure.smiles  measurement.type  reading
1  COc1cc(Cc2cnc(/N=C3\C(=O)N(CN4CCN(c5cc6c(cc5F)c(=O)c(C(=O)O)cn6C5CC5)CC4)c4ccc(Cl)cc43)nc2N)cc(OC)c1OC              IC50     18.4

###

- System: Human immunodeficiency virus 1
- measurement description: Antiviral activity against Human immunodeficiency virus 1 IIIB infected MT4 cells assessed as inhibition of virus-induced cytopathicity after 5 days by MTT assay
- Assay type: functional, organism-based
- condition: MT4, 120 h
One threshold, 20 µg/mL, splits the recorded EC50 values: lower ones are YES, equal or higher ones are NO.

compound	target or test system	assigned class
CCn1cc(C(=O)O)c(=O)c2cc(F)c(N3CCN(CN4C(=O)/C(=N\c5ncc(Cc6cc(OC)c(OC)c(OC)c6)c(N)n5)c5cc(Cl)ccc54)C(C)C3)c(F)c21 (stereo not given)	Human immunodeficiency virus 1	YES
COc1cc(Cc2cnc(/N=C3\C(=O)N(CN4CCC(C)CC4)c4ccc(Cl)cc43)nc2N)cc(OC)c1OC	Human immunodeficiency virus 1	NO
COc1cc(Cc2cnc(/N=C3\C(=O)N(CN4CCN(Cc5ccccc5)CC4)c4ccc(Cl)cc43)nc2N)cc(OC)c1OC	Human immunodeficiency virus 1	NO
COc1cc(Cc2cnc(/N=C3\C(=O)N(CN4CCN(C(=O)c5ccc(F)cc5)CC4)c4ccc(Cl)cc43)nc2N)cc(OC)c1OC	Human immunodeficiency virus 1	NO
COc1cc(Cc2cnc(/N=C3\C(=O)N(CN4CCCCC4C)c4ccc(Cl)cc43)nc2N)cc(OC)c1OC (stereo not given)	Human immunodeficiency virus 1	NO
COc1cc(Cc2cnc(/N=C3\C(=O)N(CN4CCN(c5cc6c(cc5F)c(=O)c(C(=O)O)cn6C5CC5)CC4)c4ccc(Cl)cc43)nc2N)cc(OC)c1OC	Human immunodeficiency virus 1	YES
COc1cc(Cc2cnc(/N=C3\C(=O)N(CN4CCN(c5ccccn5)CC4)c4ccc(Cl)cc43)nc2N)cc(OC)c1OC	Human immunodeficiency virus 1	NO
COc1cc(Cc2cnc(/N=C3\C(=O)N(CN4CCN(c5ccc(F)cc5)CC4)c4ccc(Cl)cc43)nc2N)cc(OC)c1OC	Human immunodeficiency virus 1	NO
COc1cc(Cc2cnc(/N=C3\C(=O)N(CN4CCN(c5ccc(Cl)cc5)CC4)c4ccc(Cl)cc43)nc2N)cc(OC)c1OC	Human immunodeficiency virus 1	NO
CCCCN(CCCC)CN1C(=O)/C(=N\c2ncc(Cc3cc(OC)c(OC)c(OC)c3)c(N)n2)c2cc(Cl)ccc21	Human immunodeficiency virus 1	YES
COc1cc(Cc2cnc(/N=C3\C(=O)N(CN4CCN(C)CC4)c4ccc(Cl)cc43)nc2N)cc(OC)c1OC	Human immunodeficiency virus 1	NO
CCN(CC)CN1C(=O)/C(=N\c2ncc(Cc3cc(OC)c(OC)c(OC)c3)c(N)n2)c2cc(Cl)ccc21	Human immunodeficiency virus 1	NO
COc1cc(Cc2cnc(/N=C3\C(=O)N(CN(Cc4ccccc4)Cc4ccccc4)c4ccc(Cl)cc43)nc2N)cc(OC)c1OC	Human immunodeficiency virus 1	YES
COc1cccc(N2CCN(CN3C(=O)/C(=N\c4ncc(Cc5cc(OC)c(OC)c(OC)c5)c(N)n4)c4cc(Cl)ccc43)CC2)c1	Human immunodeficiency virus 1	NO
COc1cc(Cc2cnc(/N=C3\C(=O)N(CN4CCN(c5cccc(Cl)c5)CC4)c4ccc(Cl)cc43)nc2N)cc(OC)c1OC	Human immunodeficiency virus 1	NO
